# subject-of-test: GORASP2, Q9H8Y8
# experimental-protocol: holdup assay
# Set-up: key: below the threshold = too weak to quantify, mostly under pKd 3.1 to 4
# experimental-parameters: plain residues with an end cap or a label only (N-terminal biotin on a linker: ado-ado)
Each record here notes measured pKd.

binder	pKd
TKDKVQETQI [LRRC4, Q9HBW1]	3.57
ADEMICITTL [CACNA1D, Q01668]	4.05
PEKVSNTTVV [IGSF5, Q9NSI5]	4.33
STYCDYTIEI [FAM71C, Q8NEG0]	4.41
TNSKQGETTV [FZD1, Q9UP38]	3.99
KIEDVEITLV [FCHSD2, O94868]	4.01
RGKNRRQSIF [CDK18, Q07002]	3.87
NISARRFTLC [FAM167B, Q9BTA0]	3.9
PALKNGQYWV [CSPG4, Q6UVK1]	5.82
PLPPEEESWV [GAS2L2, Q8NHY3]	4.48
DFKHTKSFII [JAM2, P57087]	5.6
HLSTRQGTCV [ATRNL1, Q5VV63]	4.15
KLQNPNQSVV [TYRP1, P17643]	3.73
TFSRRPKTRV [CD226, Q15762]	3.87
